target: EZH2 (Homo sapiens); test: EZH2 assay: rPRC2 with biotinylated oligonucleosome substrates and 3H SAM, FlashPlate scintillation counting, IC50; assay type: biochemical
Sequence (Q15910 whole entry): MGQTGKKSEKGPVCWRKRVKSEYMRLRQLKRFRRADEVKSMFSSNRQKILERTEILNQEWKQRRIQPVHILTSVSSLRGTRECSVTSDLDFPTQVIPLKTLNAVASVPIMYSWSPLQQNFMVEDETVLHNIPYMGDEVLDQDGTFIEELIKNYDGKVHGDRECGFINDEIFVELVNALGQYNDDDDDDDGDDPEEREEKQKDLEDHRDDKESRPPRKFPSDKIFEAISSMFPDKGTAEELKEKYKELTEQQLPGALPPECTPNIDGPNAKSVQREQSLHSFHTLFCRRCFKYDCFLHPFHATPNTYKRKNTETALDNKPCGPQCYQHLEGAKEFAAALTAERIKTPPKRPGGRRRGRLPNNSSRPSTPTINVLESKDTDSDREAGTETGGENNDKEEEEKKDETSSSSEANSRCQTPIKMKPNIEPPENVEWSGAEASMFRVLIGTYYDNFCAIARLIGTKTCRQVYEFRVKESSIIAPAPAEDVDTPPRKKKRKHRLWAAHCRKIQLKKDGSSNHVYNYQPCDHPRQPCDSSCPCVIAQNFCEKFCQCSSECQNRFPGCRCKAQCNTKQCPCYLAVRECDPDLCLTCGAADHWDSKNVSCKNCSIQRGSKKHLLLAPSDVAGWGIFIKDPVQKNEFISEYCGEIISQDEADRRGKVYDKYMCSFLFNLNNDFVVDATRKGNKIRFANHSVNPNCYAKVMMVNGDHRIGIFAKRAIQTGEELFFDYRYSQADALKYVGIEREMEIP
Sequence (O75530 whole entry partner): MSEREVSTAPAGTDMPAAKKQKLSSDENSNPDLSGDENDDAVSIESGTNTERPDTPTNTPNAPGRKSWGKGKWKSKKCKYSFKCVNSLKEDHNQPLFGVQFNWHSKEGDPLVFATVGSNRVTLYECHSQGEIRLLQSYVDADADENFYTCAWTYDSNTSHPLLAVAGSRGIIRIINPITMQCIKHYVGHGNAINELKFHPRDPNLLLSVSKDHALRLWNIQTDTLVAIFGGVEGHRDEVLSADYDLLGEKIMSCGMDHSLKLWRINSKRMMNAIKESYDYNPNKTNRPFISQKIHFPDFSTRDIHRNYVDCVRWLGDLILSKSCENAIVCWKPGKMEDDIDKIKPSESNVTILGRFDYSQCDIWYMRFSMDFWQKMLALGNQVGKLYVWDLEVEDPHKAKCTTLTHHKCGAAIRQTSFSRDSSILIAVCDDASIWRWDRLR
Sequence (Q15022 whole entry partner): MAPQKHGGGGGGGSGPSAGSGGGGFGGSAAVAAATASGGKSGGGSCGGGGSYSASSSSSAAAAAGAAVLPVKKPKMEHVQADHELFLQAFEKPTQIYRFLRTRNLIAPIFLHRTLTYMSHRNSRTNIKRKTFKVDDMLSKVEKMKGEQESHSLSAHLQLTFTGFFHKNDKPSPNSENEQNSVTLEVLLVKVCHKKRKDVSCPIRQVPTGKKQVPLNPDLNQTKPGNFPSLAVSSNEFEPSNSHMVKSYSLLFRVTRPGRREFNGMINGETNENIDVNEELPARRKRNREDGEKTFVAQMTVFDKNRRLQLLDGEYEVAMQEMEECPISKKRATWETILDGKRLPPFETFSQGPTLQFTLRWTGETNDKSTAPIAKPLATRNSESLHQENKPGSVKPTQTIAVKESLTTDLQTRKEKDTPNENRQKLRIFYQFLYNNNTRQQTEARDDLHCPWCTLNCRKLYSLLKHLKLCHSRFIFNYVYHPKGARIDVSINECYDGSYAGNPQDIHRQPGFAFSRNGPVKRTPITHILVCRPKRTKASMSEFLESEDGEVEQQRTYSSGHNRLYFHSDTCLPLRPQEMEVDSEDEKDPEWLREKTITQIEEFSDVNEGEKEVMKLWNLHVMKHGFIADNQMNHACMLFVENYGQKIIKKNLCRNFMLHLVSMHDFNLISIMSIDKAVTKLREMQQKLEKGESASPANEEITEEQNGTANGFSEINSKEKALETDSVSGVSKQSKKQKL

{"columns": ["Chem Smiles", "IC50"],
 "data": [
  ["CC1(C)CC(NC(=O)c2ccc(Oc3ccccc3C#N)c(Cl)c2)CC(C)(C)N1[O]", "> 80 µM"]
]}

* * *

Reported pIC50 by item:
molecular target: UniProtKB Q15910; assay: EZH2 assay: rPRC2 with biotinylated oligonucleosome substrates and 3H SAM, FlashPlate scintillation counting, IC50; type: biochemical; conditions: rPRC2, biotinylated oligonucleosome substrates, 3H SAM; read-out: EZH2 IC50
pIC50: −log10 of the molar value.

{"columns": ["Chem Smiles", "pIC50"],
 "data": [
  ["CC1(C)CC(NC(=O)c2ccc(COc3cccc4ncccc34)cc2)CC(C)(C)N1", "4.70 to 5.30"],
  ["CNC(=O)Cn1cc(-c2cccc(Oc3ccc(C(=O)NC4CC(C)(C)NC(C)(C)C4)cc3Cl)c2C#N)cn1", "> 5.30"],
  ["CC1(C)CC(NC(=O)c2ccc(Oc3cccnc3)cc2)CC(C)(C)N1", "4.10 to 4.70"],
  ["CC1(C)CC(NC(=O)c2ccc(Oc3cccc(CC#N)c3-c3cncnc3)c(Cl)c2)CC(C)(C)N1", "> 5.30"]
]}

* * *

biological target: UniProt:Q15910; assay: EZH2 assay: rPRC2 with biotinylated oligonucleosome substrates and 3H SAM, FlashPlate scintillation counting, IC50; type: biochemical; settings: rPRC2, biotinylated oligonucleosome substrates, 3H SAM; read-out: EZH2 IC50
Reported IC50 by item:

{"columns": ["Compound", "IC50"],
 "data": [
  ["CC1(C)CC(NC(=O)c2ccc(COc3cccnc3)cc2)CC(C)(C)N1", "20 to 80 µM"],
  ["CC1(C)CC(NC(=O)c2ccc(Oc3cccc(-c4cccc(C#N)c4)c3C#N)c(Cl)c2)CC(C)(C)N1", "< 5 µM"],
  ["CC1(C)CC(NC(=O)c2ccc(Oc3ccccc3)c(OCc3ccccc3)c2)CC(C)(C)N1", "20 to 80 µM"],
  ["COCCNC(=O)CCc1cccc(Oc2ccc(C(=O)NC3CC(C)(C)NC(C)(C)C3)cc2Cl)c1C#N", "< 5 µM"],
  ["CC(=O)Nc1cccc(Oc2ccc(C(=O)NC3CC(C)(C)NC(C)(C)C3)cc2)c1", "20 to 80 µM"],
  ["CC1(C)CC(NC(=O)c2cccc(Oc3ccccc3)c2)CC(C)(C)N1", "> 80 µM"],
  ["Cc1cc(C)cc(Oc2ccc(C(=O)NC3CC(C)(C)NC(C)(C)C3)cc2)c1", "> 80 µM"],
  ["CC1(C)CC(NC(=O)c2ccc(Oc3cccc4cnccc34)c(Br)c2)CC(C)(C)N1", "< 5 µM"],
  ["CC1(C)CC(NC(=O)c2ccc(Oc3cccc(N4CCCC4=O)c3)c(Cl)c2)CC(C)(C)N1", "5 to 20 µM"],
  ["COc1ncccc1-c1ccccc1Oc1ccc(C(=O)NC2CC(C)(C)NC(C)(C)C2)cc1Cl", "> 80 µM"],
  ["CC1(C)CC(NC(=O)c2ccc(Oc3ccccc3-c3cnc4ccccc4c3)c(Cl)c2)CC(C)(C)N1", "< 5 µM"],
  ["CC1(C)CC(NC(=O)c2ccc(Oc3cccc(Br)c3C#N)c(Cl)c2)CC(C)(C)N1", "< 5 µM"],
  ["CC1(C)CC(NC(=O)c2ccc(Oc3cccc(-c4ccc(N5CCNCC5)nc4)c3C#N)c(Cl)c2)CC(C)(C)N1", "< 5 µM"],
  ["O=C(NC1CCCCC1)c1ccc(Oc2ccccc2)cc1", "> 80 µM"],
  ["CC(O)c1ccccc1Oc1ccc(C(=O)NC2CC(C)(C)NC(C)(C)C2)cc1 (stereo not shown)", "20 to 80 µM"],
  ["COc1cc(C(=O)NC2CC(C)(C)NC(C)(C)C2)cc2c1OCCO2", "> 80 µM"]
]}
